B1: library; numbered along this chain (parent)
chain: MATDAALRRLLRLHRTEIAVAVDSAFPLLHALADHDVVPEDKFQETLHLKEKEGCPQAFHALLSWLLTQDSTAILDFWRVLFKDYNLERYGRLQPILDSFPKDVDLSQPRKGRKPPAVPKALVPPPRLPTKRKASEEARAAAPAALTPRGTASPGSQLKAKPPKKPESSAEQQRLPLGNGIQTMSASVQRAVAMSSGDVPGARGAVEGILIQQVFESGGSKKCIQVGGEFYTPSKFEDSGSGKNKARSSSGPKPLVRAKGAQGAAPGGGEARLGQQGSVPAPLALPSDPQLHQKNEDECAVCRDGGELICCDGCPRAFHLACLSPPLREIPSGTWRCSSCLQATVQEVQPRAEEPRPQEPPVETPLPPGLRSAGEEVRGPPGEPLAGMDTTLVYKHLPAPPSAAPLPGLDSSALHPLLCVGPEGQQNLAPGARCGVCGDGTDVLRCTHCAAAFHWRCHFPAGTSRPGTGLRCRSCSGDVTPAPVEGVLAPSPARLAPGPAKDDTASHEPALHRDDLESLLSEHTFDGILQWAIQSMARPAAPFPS

# Variants of: B1
# measurementProtocol: AIRE transcriptional activation functional score (insulin promoter-GFP; nonsense median 0, synonymous median 1) (normalised score); higher = higher AIRE activity (more reporter activation)
# experimentalContext: with insulin promoter-GFP reporter in HEK293
Label true (1) when AIRE transcriptional activation functional score >= 0.8; otherwise false (0).

stdin: Determine whether measured AIRE transcriptional activation functional score meets or exceeds 0.8 for G408F
stdout: true (1)

stdin: Determine whether measured AIRE transcriptional activation functional score meets or exceeds 0.8 for V192D
stdout: false (0)

Continuing:
stdin: Determine whether measured AIRE transcriptional activation functional score meets or exceeds 0.8 for P398S
stdout: true (1)

stdin: Determine whether measured AIRE transcriptional activation functional score meets or exceeds 0.8 for S234C
stdout: true (1)

stdin: Determine whether measured AIRE transcriptional activation functional score meets or exceeds 0.8 for K52T
stdout: true (1)

stdin: Determine whether measured AIRE transcriptional activation functional score meets or exceeds 0.8 for C472S
stdout: false (0)

stdin: Determine whether measured AIRE transcriptional activation functional score meets or exceeds 0.8 for P233Y
stdout: false (0)

stdin: Determine whether measured AIRE transcriptional activation functional score meets or exceeds 0.8 for P466V
stdout: true (1)

stdin: Determine whether measured AIRE transcriptional activation functional score meets or exceeds 0.8 for G112D
stdout: true (1)

stdin: Determine whether measured AIRE transcriptional activation functional score meets or exceeds 0.8 for P422W
stdout: true (1)

stdin: Determine whether measured AIRE transcriptional activation functional score meets or exceeds 0.8 for S249T
stdout: false (0)

stdin: Determine whether measured AIRE transcriptional activation functional score meets or exceeds 0.8 for P315V
stdout: true (1)

stdin: Determine whether measured AIRE transcriptional activation functional score meets or exceeds 0.8 for G424W
stdout: true (1)

stdin: Determine whether measured AIRE transcriptional activation functional score meets or exceeds 0.8 for L397V
stdout: false (0)

stdin: Determine whether measured AIRE transcriptional activation functional score meets or exceeds 0.8 for D515H
stdout: false (0)

stdin: Determine whether measured AIRE transcriptional activation functional score meets or exceeds 0.8 for Q534Y
stdout: false (0)

stdin: Determine whether measured AIRE transcriptional activation functional score meets or exceeds 0.8 for P492H
stdout: false (0)

stdin: Determine whether measured AIRE transcriptional activation functional score meets or exceeds 0.8 for G527F
stdout: false (0)

stdin: Determine whether measured AIRE transcriptional activation functional score meets or exceeds 0.8 for G180C
stdout: true (1)

stdin: Determine whether measured AIRE transcriptional activation functional score meets or exceeds 0.8 for I18R
stdout: false (0)

stdin: Determine whether measured AIRE transcriptional activation functional score meets or exceeds 0.8 for A403I
stdout: true (1)

stdin: Determine whether measured AIRE transcriptional activation functional score meets or exceeds 0.8 for K245N
stdout: false (0)

stdin: Determine whether measured AIRE transcriptional activation functional score meets or exceeds 0.8 for P365T
stdout: true (1)
